All values here come from patent US10660877B2.

- tested system: human TLR8 (Homo sapiens (Human))
- Sequence (Q9NR97 27-1041): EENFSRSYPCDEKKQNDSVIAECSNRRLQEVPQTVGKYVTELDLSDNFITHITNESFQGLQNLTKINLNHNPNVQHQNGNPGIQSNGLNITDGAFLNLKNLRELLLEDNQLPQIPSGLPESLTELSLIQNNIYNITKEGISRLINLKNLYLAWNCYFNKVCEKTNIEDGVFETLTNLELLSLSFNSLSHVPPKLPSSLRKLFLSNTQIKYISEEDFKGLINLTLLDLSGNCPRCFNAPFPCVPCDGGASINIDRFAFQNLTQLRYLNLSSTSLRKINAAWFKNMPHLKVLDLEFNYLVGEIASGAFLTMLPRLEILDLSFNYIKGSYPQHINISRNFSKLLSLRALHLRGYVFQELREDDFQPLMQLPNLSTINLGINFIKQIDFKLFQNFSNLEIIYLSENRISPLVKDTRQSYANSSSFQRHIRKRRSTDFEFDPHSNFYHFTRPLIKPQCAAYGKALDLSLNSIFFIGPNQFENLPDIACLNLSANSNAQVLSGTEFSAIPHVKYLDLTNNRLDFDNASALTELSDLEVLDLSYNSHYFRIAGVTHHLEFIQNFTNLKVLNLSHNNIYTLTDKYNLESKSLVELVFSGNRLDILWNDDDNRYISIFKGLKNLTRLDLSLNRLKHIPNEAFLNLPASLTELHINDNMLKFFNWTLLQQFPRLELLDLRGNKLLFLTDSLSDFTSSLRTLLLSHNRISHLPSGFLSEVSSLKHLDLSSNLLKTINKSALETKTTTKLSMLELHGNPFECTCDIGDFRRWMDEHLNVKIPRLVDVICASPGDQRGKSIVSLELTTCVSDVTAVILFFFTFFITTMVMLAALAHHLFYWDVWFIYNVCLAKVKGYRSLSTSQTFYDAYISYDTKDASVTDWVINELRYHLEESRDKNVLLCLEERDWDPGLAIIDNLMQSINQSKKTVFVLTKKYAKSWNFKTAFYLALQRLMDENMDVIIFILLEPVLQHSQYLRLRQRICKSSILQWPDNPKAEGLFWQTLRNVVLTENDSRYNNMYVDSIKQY
- experimental protocol: TLR8 inhibition reporter assay (HEK-Blue cells, SEAP reporter, R848 stimulation)
- experimental setup: read-out: TLR8 IC50, HEK-Blue cells overexpressing human TLR8, R848 15.9 μM
As shown below, each of these compounds has a reported pIC50 value.
As a rule, pIC50 stands for the negative log10 of the concentration, concentration in M.

Consider the reported pIC50 for these compounds:
smiles_repr=Cc1cc(-c2[nH]c3ccc(C4CCN(CC(F)F)CC4)cc3c2C(C)C)ccn1 tested_system="human TLR8 (Homo sapiens (Human))" observed_value=7.10
smiles_repr=CC(=O)N1CCC(c2ccc3[nH]c(-c4cc(C)nc(C5CC5)c4)c(C(C)C)c3c2)CC1 tested_system="human TLR8 (Homo sapiens (Human))" observed_value=6.19
smiles_repr=COc1cc(-c2[nH]c3ccc(C4CCN(C5CCNCC5)CC4)cc3c2C(C)C)ccn1 tested_system="human TLR8 (Homo sapiens (Human))" observed_value=6.73

Shifting focus to the compound that follows.
With human TLR8 (Homo sapiens (Human)) as the test system, CC(C)c1c(-c2ccnc(F)c2)[nH]c2ccc(C3CCN(C(=O)CN(C)C)CC3)cc12 showed pIC50 of 7.32

====

- tested system: human TLR9 (Homo sapiens (Human))
- experimental protocol: TLR9 inhibition reporter assay (HEK-Blue cells, SEAP reporter, ODN2006 stimulation)
- experimental setup: read-out: TLR9 IC50, HEK-Blue cells overexpressing human TLR9, ODN2006 5 nM
Below, each entry is listed with its recorded pIC50.
Interpret pIC50 as the negative base-10 log of the concentration measured in mol/L.

molecule="CCc1c(-c2ccnc(C)c2)[nH]c2ccc(C3CCN(C(=O)[C@H]4CC(F)(F)CN4)CC3)cc12 [Example 623]" observed_value=4.84
molecule="Cc1cc(-c2[nH]c3ccc(C4CCN(C5CCOCC5)CC4)cc3c2C(C)C)c(C)cn1 [Example 714]" observed_value=5.65
molecule="CCC(C)NC(=O)CN1CCC(c2ccc3[nH]c(-c4cc(C)nc(C)c4)c(C(C)C)c3c2)CC1 (centres unmarked) [Example 234]" observed_value=5.77
molecule="CNC(=O)CN1CCC(c2ccc3[nH]c(-c4cc(C)ncc4C)c(C(C)C)c3c2)CC1 [Example 653]" observed_value=5.38
molecule="Cc1cc(-c2[nH]c3ccc(C4CCN(CC5COC5)CC4)cc3c2C(C)C)cc(C)n1 [Example 333]" observed_value=6.44
molecule="Cc1cc(-c2[nH]c3ccc(C4CCN(CC(F)(F)F)CC4)cc3c2C(C)C)cc(C)n1 [Example 310]" observed_value=4.52

// below: pIC50 requested for another molecule
Quick note, pIC50 for CC(C)c1c(-c2c(Cl)cncc2Cl)[nH]c2ccc(C3CCNCC3)cc12 [Example 20] landed at 5.11

====

- tested system: human TLR8 (Homo sapiens (Human))
- experimental protocol: TLR8 inhibition reporter assay (HEK-Blue cells, SEAP reporter, R848 stimulation);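 also: compounds tested from 0.05 nM to 50 µM, 22 h at 37 °C, SEAP measured with HEK-Blue Detection, inhibition relative to agonist plus DMSO versus a known inhibitor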
- experimental setup: read-out: TLR8 IC50, HEK-Blue cells overexpressing human TLR8, R848 15.9 μM
observation type: IC50 (nM)
Report as a plain number; the unit nM is understood.

compound=Cc1cc(-c2[nH]c3ccc(C4CCN(CC(=O)NCC5(C)CC5)CC4)cc3c2C(C)C)cc(C)n1 tested_system="human TLR8 (Homo sapiens (Human))" unit_text=nM observed_value=20.4
compound=CN[C@@H](C)C(=O)N1CCC(c2ccc3[nH]c(-c4cc(C)nc(C)c4)c(C(C)C)c3c2)CC1 tested_system="human TLR8 (Homo sapiens (Human))" unit_text=nM observed_value=14.4
compound="Cc1cc(-c2[nH]c3ccc(C4CCN(CC(=O)N5C(C)CCC5C)CC4)cc3c2C(C)C)cc(C)n1 (stereo not shown)" tested_system="human TLR8 (Homo sapiens (Human))" unit_text=nM observed_value=22.3
compound=Cc1cc(-c2[nH]c3ccc(C4CCN(Cc5ccn[nH]5)CC4)cc3c2C(C)C)c(C)cn1 tested_system="human TLR8 (Homo sapiens (Human))" unit_text=nM observed_value=0.6
compound=Cc1cc(-c2[nH]c3ccc(C4CCN(CC(F)(F)F)CC4)cc3c2C(C)C)cc(C)n1 tested_system="human TLR8 (Homo sapiens (Human))" unit_text=nM observed_value=895

IC50 reading for CCc1c(-c2ccnc(C)c2)[nH]c2ccc(C3CCN(C(=O)c4ccncc4)CC3)cc12 : 241

Cc1cc(-c2[nH]c3ccc(C4CCN(C(=O)CN(C)CC(F)F)CC4)cc3c2C(C)C)cc(C)n1 has a reported IC50 of 73.4

The reported IC50 of the compound Cc1cc(-c2[nH]c3ccc(C4CCN(C(=O)CN5CCCC(C)(C)C5)CC4)cc3c2C(C)C)cc(C)n1 was 23.7

Entry CC(C)c1c(-c2ccnc(N(C)C)c2)[nH]c2ccc(C3CCNCC3)cc12 — recorded IC50 = 704

For this compound ( Cc1nccc(-c2[nH]c3ccc(C4CCNCC4)cc3c2C(C)C)c1Cl ), measured IC50 is 14.4

Record Cc1cc(-c2[nH]c3ccc(C4CCN(C(=O)C5(C(N)=O)CC5)CC4)cc3c2C(C)C)cc(C)n1 , field IC50: 61.7

# IC50 of Cc1cc(-c2[nH]c3ccc(C4CCN(CC(C)(C)O)CC4)cc3c2C2CC2)cc(C)n1 = 7.6

Notebook: Cc1cc(-c2[nH]c3ccc(C4CCNCC4)cc3c2C(C)C)cc(C)n1.Cl [Example 1, hydrochloride] , IC50 read as 3.2

Kindly note the recorded IC50 for Cc1cc(-c2[nH]c3ccc(C4CCN(CC(=O)N5CCC5)CC4)cc3c2C(C)C)cc(C)n1 , which is 9.1

Lab note: Cc1cc(-c2[nH]c3ccc(C4CCN(CC(=O)N(C)C)CC4)cc3c2C(C)C)c(F)cn1 gave IC50 of 4.7

====

- tested system: human TLR9 (Homo sapiens (Human))
- experimental protocol: TLR9 inhibition reporter assay (HEK-Blue cells, SEAP reporter, ODN2006 stimulation)
- experimental setup: read-out: TLR9 IC50, HEK-Blue cells overexpressing human TLR9, ODN2006 5 nM
observation type: log10 IC50 (log10 of the value in nM)
Give log10 of IC50, with IC50 taken in nM.

The molecule listed as Cc1cc(-c2[nH]c3ccc(C4CCN(C(=O)Cc5cn(C)cn5)CC4)cc3c2C(C)C)cc(C)n1 [Example 137] has a reported log10 IC50 of 3.25

Sure, the documented log10 IC50 for Cc1cc(-c2[nH]c3ccc(C4CCN(CC5(CO)COC5)CC4)cc3c2C(C)C)cc(C)n1 [Example 319] is 2.55

Entry CCc1c(-c2ccncc2)[nH]c2ccc(C3CCNCC3)cc12 [Example 60] — recorded log10 IC50 = 2.83

Lookup result for CCc1c(-c2ccnc(OC)c2)[nH]c2ccc(C3CCN(C4CCNCC4)CC3)cc12 [Example 787] ; measured log10 IC50: 2.68

Memo: Cc1cc(-c2[nH]c3ccc(C4CCN(C5CCN(C(C)C)CC5)CC4)cc3c2C(C)C)ccn1 [Example 701] , reported log10 IC50: 2.21

Query Cc1cc(-c2[nH]c3ccc(C4CCN(CCC(F)(F)F)CC4)cc3c2C(C)C)ccn1 [Example 676] yields log10 IC50 of 3.29

So for Cc1cc(-c2[nH]c3ccc(C4CCN(C(=O)CNCC(C)(C)O)CC4)cc3c2C(C)C)cc(C)n1 [Example 375] , the logged log10 IC50 turned out to be 3.25

So, Cc1cc(-c2[nH]c3ccc(C4CCN(C5CC(C)OC(C)C5)CC4)cc3c2C(C)C)cc(C)n1 (stereo not shown) [Example 455] ? Its log10 IC50 was 2.59

====

Documented IC50 across a set of molecules
- tested system: human TLR9 (Homo sapiens (Human), UniProt Q9NR96)
- Sequence (Q9NR96 26-1032): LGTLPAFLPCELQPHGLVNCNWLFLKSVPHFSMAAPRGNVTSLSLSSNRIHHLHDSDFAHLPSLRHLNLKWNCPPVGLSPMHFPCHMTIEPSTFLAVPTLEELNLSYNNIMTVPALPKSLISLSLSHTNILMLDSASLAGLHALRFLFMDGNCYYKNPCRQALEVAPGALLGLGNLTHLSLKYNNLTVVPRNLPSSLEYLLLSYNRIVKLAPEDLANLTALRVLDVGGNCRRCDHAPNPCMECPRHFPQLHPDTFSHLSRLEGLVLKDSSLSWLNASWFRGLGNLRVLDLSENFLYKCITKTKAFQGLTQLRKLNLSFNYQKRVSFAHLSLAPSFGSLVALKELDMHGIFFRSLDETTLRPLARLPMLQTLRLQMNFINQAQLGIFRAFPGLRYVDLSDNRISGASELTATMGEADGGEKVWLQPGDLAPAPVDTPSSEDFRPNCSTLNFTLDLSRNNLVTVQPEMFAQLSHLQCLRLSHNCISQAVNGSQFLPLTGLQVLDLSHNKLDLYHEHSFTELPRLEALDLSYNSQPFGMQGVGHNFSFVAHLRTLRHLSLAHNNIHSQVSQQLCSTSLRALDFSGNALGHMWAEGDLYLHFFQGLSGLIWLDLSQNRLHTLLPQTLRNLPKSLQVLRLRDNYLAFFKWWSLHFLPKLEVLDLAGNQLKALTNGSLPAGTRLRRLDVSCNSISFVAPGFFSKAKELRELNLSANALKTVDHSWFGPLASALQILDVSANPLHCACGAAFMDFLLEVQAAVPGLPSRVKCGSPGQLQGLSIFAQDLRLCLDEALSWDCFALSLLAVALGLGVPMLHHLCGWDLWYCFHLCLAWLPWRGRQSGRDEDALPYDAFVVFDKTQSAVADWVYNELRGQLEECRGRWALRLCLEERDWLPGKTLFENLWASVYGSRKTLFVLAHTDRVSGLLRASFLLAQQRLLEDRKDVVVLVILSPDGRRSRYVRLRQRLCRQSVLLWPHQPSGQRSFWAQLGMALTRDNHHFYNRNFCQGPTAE
- experimental protocol: TLR9 inhibition reporter assay (HEK-Blue cells, SEAP reporter, ODN2006 stimulation);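 also: compounds tested over 0.05 nM to 50 µM, 22 h incubation, inhibition taken as SEAP signal drop from agonist plus DMSO wells toward a known inhibitor control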
- experimental setup: read-out: TLR9 IC50, HEK-Blue cells overexpressing human TLR9, ODN2006 5 nM
Value expressed in nM; do not type the unit.

smiles_repr=COC(=O)c1c(-c2cc(C)nc(C)c2)[nH]c2ccc(C3CCNCC3)cc12 unit_text=nM observed_value=144
smiles_repr=Cc1cc(-c2[nH]c3ccc(C4CCN(Cc5ccn[nH]5)CC4)cc3c2C(C)C)cc(C)n1 unit_text=nM observed_value=303
smiles_repr=COc1cc(-c2[nH]c3ccc(C4CCNCC4)cc3c2C(C)C)ccn1 unit_text=nM observed_value=3040

For this molecule ( Cc1cc(-c2[nH]c3ccc(C4CCN(CC(=O)NCC#N)CC4)cc3c2C(C)C)cc(C)n1 ), measured IC50 is 1590

====

- tested system: human TLR7 (Homo sapiens (Human), UniProt Q9NYK1)
- Sequence (Q9NYK1 27-1049): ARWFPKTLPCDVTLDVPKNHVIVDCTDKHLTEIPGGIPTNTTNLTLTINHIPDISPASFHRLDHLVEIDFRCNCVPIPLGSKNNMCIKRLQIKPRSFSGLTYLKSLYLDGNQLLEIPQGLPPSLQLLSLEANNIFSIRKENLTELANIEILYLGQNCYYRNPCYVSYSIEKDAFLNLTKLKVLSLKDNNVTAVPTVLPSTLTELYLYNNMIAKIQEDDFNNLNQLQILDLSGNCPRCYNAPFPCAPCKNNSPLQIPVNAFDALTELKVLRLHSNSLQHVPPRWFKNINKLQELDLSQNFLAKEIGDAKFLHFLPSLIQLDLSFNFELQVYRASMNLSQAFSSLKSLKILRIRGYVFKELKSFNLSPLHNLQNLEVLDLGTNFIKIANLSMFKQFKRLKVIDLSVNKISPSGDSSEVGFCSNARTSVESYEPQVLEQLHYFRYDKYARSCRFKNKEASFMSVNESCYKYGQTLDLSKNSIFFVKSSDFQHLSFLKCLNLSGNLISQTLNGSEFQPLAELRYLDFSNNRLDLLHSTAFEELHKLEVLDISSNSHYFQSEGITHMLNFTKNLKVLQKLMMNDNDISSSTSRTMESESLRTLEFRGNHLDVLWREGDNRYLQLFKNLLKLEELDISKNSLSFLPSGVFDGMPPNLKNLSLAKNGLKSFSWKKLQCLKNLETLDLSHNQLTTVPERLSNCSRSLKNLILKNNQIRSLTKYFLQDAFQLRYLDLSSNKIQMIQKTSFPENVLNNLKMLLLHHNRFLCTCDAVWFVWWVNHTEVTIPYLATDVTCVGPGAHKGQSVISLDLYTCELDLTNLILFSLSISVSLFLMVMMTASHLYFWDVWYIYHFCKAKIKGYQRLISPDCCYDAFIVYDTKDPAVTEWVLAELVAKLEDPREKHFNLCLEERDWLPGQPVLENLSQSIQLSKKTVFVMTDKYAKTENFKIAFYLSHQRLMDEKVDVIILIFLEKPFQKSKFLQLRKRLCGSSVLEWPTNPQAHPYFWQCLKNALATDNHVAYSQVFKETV
- experimental protocol: TLR7 inhibition reporter assay (HEK-Blue cells, SEAP reporter, gardiquimod stimulation)
- Type: cell-based
- experimental setup: HEK-Blue cells, gardiquimod 7.5 μM
Just a reminder that ties go to not met: only IC50 strictly below 30 nM counts as met.

Use the examples below as a reference point.
compound="Cc1cc(-c2[nH]c3cc(F)c(C4CCN(C5CCOCC5)CC4)cc3c2C(C)C)cc(C)n1 [Example 831]" group_label=met
compound="Cc1cc(-c2[nH]c3ccc(C4CCN(C5CCN(C(C)C)CC5)CC4)cc3c2C)ccn1 [Example 811]" group_label="not met"
compound="Cc1cc(-c2[nH]c3ccc(C4CCN(C5CCN(C(C)C)CC5)CC4)cc3c2C)cc(C)n1 [Example 813]" group_label="not met"
compound="CC(=O)N1CCC(c2ccc3[nH]c(-c4ccnc(C)c4)c(C(C)C)c3c2)CC1 [Example 826]" group_label="not met"
compound="Cc1ncc(CN2CCC(c3ccc4[nH]c(-c5ccnc(N)c5)c(C(C)C)c4c3)CC2)[nH]1 [Example 818]" group_label="not met"
compound="Cc1cc(-c2[nH]c3ccc(C4CCN(C(C)CF)CC4)cc3c2C(C)C)c(C)cn1 (stereo not shown) [Example 870]" group_label=met
compound="Cc1nccc(-c2[nH]c3ccc(C4CCN(C5CCN(C(C)C)CC5)CC4)cc3c2C)c1C [Example 812]" group_label="not met"
compound="Cc1cc(-c2[nH]c3cc(F)c(C4CCN(CC(=O)N(C)C)CC4)cc3c2C(C)C)c(C)cn1 [Example 835]" group_label=met

Would you kindly verify if IC50 of Cc1cc(-c2[nH]c3ccc(C4CCN(CC5(C)COC5)CC4)cc3c2C(C)C)c(C)cn1 [Example 872] is strictly less than 30 nM?
met

# TODO verify IC50 < 30 nM strictly for this compound: Cc1cc(-c2[nH]c3ccc(C4CCN(CC(=O)O)CC4)cc3c2C(C)C)cc(C)n1 [Example 875]
not met
